Measured Tm by item
- ASSAY_METHOD_TEXT: melting temperature; fluorescence melt of hairpins on a sequencing array, two-state fit, raised by 9.35 °C to match UV melts
- RECORDED_CONDITIONS: sodium 0.088 M
ENDPOINT_LABEL: Tm (°C)

SEQUENCE_STRING	ENDPOINT_LABEL	MEASUREMENT
GATCGTGGGAACGATC ((((((....))))))	Tm	61
GTCGGTCGAAAGACGGAC (((.(((....))).)))	Tm	59.1
GGTTTTCGAAAGAAACC (((.(((....))))))	Tm	44.8
GGGAGCGAAAGCTTCCC ((((((....))).)))	Tm	61.7
GCGGGCGAAAGCCTCGC ((((((....))).)))	Tm	66.3
GCTGTGCGAAAGCACTGC ((.((((....)))).))	Tm	68.1
GCCTCCTCGAAAGAGGGC (((..(((....))))))	Tm	43.9
GCCATGCGAAAGCAACGC ((..(((....)))..))	Tm	29
GATCATATCTATGATC ((((((....))))))	Tm	48.5
GGGCATGCGAAAGCACCC (((..(((....))))))	Tm	42.3
GGGCGCCGAAAGGCCCCC (((.(((....))).)))	Tm	65.5
GATCATCACTATGATC ((((((....))))))	Tm	48.6
GGAGGTGGAAACGTCTCC ((((..(....)..))))	Tm	35.9
GGCAGGGGAAACCCCACC ((..(((....)))..))	Tm	31.6
GATCAGAGTCCTGATC ((((((....))))))	Tm	47.6
GATTGCGAAAGCAATATC ((((((....)))..)))	Tm	50.1
GTTGCGCGAAAGCGAAAC (((.(((....))).)))	Tm	59.5
GTAGGGGGAAACCTCTGC (.((.((....)).)).)	Tm	31.9
GCTGATGCGAAAGCAAGC (((..(((....))))))	Tm	43.5
GATCACCGTGGTGATC ((((((....))))))	Tm	66.3
GGTTCAGGAAACTGAATC (.(((((....))))).)	Tm	44.2
GTATGCTCGAAAGAGTAC (((..(((....))))))	Tm	26.7
GATCCTGGAAACAGGATC (((((((....)))))))	Tm	61.7
GCTGACGAAAGTCTAAGC ((((((....)))..)))	Tm	47.1
CGCCGACGGAAACGTGCG (((..(((....))))))	Tm	45.5
